System: HOP-18
Test: NCI tumour cell line growth inhibition, 48 h
The source made the active and inactive calls. Rule as the data show it: active = GI50 up to about 1.1 µM and inactive = higher.
Recorded GI50, one value per entry.
measured.parameter: GI50

molecule=Cc1cc(/N=C2\C=C(Nc3cc(C)on3)C(=O)c3ccccc32)no1 result="28.4 µM (inactive)"
molecule="COC(=O)C(C(=O)C(=O)Nc1ccc(N)cc1[N+](=O)[O-])c1nc2ccc(Cl)cc2nc1O (stereo unspecified)" result="72.3 µM (inactive)"
molecule="O=[N+]([O-])c1ccc(C2N3CCCCC3[C@H]3CCCCN23)cc1 (stereo partly specified)" result="> 100 µM (inactive)"
molecule=CCCCCCCCCCCCCCCC(=O)NCC(OCC)OCC result="> 100 µM (inactive)"
molecule="COC(=O)C12OCC34C(CC5C(C)=C(O)C(=O)CC5(C)C3C(O)C1O)OC(=O)C(OC(=O)C=C(C)C)C24 (stereo unspecified)" result="> 500 µM (inactive)"
molecule=COc1ccc(/C=N/NS(=O)(=O)c2ccccc2)cc1 result="> 100 µM (inactive)"
molecule="CC(C)N(C(=O)C12C3C4C5(C#N)C3C1(C#N)C5C42I)C(C)C (stereo unspecified)" result="> 100 µM (inactive)"
molecule="Cc1[nH]c2ccccc2c1C1Cc2ccccc2N1C(=O)C#Cc1ccc([N+](=O)[O-])cc1 (stereo unspecified)" result="> 100 µM (inactive)"
molecule="CN1C(=O)C2C(C1=O)C1(O)c3ccccc3C2(N)c2ccccc21 (stereo unspecified)" result="> 100 µM (inactive)"
molecule=COc1ccccc1C1C(C(=O)Nc2ccccc2)=C(C)NC(C)=C1C(=O)Nc1ccccc1 result="> 100 µM (inactive)"
molecule="COc1ccc2c(c1)CN1CCc3c(cc(OC)c(OC)c3OC)C1C2 (stereo unspecified)" result="> 100 µM (inactive)"
molecule="COC(=O)C(c1n[nH]c2ccccc12)C(C(=O)OC)c1n[nH]c2ccccc12 (stereo unspecified)" result="59.2 µM (inactive)"
molecule=C=CCONC(=O)c1ccc(Cl)cc1 result="> 100 µM (inactive)"
molecule=CCN(CC)c1ccc2c(c1)Nc1cc(=C(C#N)C#N)c3ccccc3c1=N2 result="> 100 µM (inactive)"
molecule=CN(C)C(=S)/N=c1\sn(C)/c(=N\C(=S)N(C)C)n1C result="> 100 µM (inactive)"
molecule="COc1cc2c3c(c1OC)-c1cc4c(cc1CC3(C#N)N(C(=O)c1ccccc1)CC2)OCO4 (stereo unspecified)" result="21.2 µM (inactive)"
